# experimental-target: T1, cynomolgus monkey CD40 on cells (cynomolgus monkey, UniProt G7PG38 21-278)
# T1 construct: also called cyCD40; CHO-K1/cyCD40
# T1 sequence (G7PG38 entry or part of it limits assumed): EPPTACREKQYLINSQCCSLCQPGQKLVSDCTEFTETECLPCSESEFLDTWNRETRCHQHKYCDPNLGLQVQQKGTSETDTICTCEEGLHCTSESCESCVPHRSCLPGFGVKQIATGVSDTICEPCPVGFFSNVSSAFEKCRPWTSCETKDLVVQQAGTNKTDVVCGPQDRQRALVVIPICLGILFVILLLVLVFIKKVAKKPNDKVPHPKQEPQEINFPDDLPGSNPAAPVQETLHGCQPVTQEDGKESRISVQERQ
# protocol-summary: FACS, CHO-K1/cyCD40 cells
# Excerpt: Flow cytometry (FACS) was used to detect the binding ability of the CD40 antibody to cells, such as, CHO-K1/hCD40 highly expressing human CD40 (constructed by Beijing Kyinno Biotechnology), CHO-K1/cyCD40 highly expressing cynomolgus monkey CD40 (constructed by Beijing Kyinno Biotechnology) and lymphoma cell highly expressing human CD40, Raji (ATCC, #CCL-86). […]
Measured Maximum MFI accompanies every entry in the list below.
Report as a plain number; the unit MFI is understood.

Note Maximum MFI for the binder shown: PR006499 (antibody, human IgG1, kappa, V domains shown, PR003379 variant L:N92W; human IgG1 L234A, L235A, G237A) VH: QVQLVQSGAEVKKPGASVKVSCKASGYTFAGYYMYWVRQAPGQGLEWMGWINPDSGAPTYAQKFQGRVTMTRDTSISTAYMELSRLRSDDTAVYYCAREKIYYGSGNYYPSFDYWGQGTLVTVSS VL: DIQLTQSPSFLSASVGDRVTITCRASQGISSYLAWYQQKPGKAPKLLIYAASTLQSGVPSRFSGSGSGTEFTLTISSLQPEDFATYYCQQLWSYPWTFGQGTKVEIKR
49800

Attention now shifts to the item below.
Note Maximum MFI for the binder shown: PR006516 (antibody, human IgG1, kappa, V domains shown, PR003379 variant L:S93H; human IgG1 L234A, L235A, G237A) VH: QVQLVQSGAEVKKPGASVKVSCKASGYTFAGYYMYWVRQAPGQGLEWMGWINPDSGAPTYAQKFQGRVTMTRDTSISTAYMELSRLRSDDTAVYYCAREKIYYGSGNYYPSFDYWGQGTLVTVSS VL: DIQLTQSPSFLSASVGDRVTITCRASQGISSYLAWYQQKPGKAPKLLIYAASTLQSGVPSRFSGSGSGTEFTLTISSLQPEDFATYYCQQLNHYPWTFGQGTKVEIKR
51400
